Reference source for all entries: the RNAGym collection of RNA variant scans (doi:10.1073/pnas.2313332121)

B1: TPR 5TU (parent)
chain: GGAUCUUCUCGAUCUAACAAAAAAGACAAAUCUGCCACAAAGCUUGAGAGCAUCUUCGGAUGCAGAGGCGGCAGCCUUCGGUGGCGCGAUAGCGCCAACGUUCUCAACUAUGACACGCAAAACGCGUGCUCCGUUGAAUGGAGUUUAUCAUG

# Variants of: B1
# TEST: polymerase ribozyme fitness, log enrichment relative to wild type (log ratio); higher = more active; in vitro selection for triplet polymerase activity
Fewer inactive variants are shown than the library holds.
The entries below come with measured polymerase ribozyme fitness (log ratio) values attached.
Answer with a bare number; do not write a unit.

// solved cases for polymerase ribozyme fitness (log ratio) follow
VAR	polymerase ribozyme fitness (log ratio)
A19G C27U	-1.17
A60G A110G G136A	-2.56
C32G U56A C57A C114G	-4.19
G94A U101C	-0.823
U109G U139C A142U	-3.41
C57G G59A C118U C125A G136C	-3.19
C14G U61G	-3.62
A21U C96A G136A	0.203

Using the record for G59U A120G , report its polymerase ribozyme fitness (log ratio). -0.485

And for A47C U151G G152A ? -4.19

And for C96A U134C A138G G141C ? -4.07

And for A47C C96A ? -0.697

And for G92C U135G ? -3.12
